Kindly supply the reported sfGFP reporter fluorescence values for the records listed here.
B1: library; a variant is named by its letters at X, in order (parent)
chain: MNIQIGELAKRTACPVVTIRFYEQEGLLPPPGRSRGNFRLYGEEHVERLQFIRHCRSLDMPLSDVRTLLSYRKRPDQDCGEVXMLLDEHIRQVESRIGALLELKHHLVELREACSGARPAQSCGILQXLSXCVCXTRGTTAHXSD

Variants of: B1
protocol.notes: sfGFP reporter fluorescence (15 h) (µM FITC); higher = higher leak
condition.parameters: library round: Round 2; ligand: none

Q: Look up and state reported sfGFP reporter fluorescence for NMDDP M60L P61N K104V L107C
Result: 0.759

Q: Give recorded sfGFP reporter fluorescence. `TGAAP`
Result: 0.0444

Q: Give the measured sfGFP reporter fluorescence for `NSEPP`
Result: 0.0629

Q: Tell me measured sfGFP reporter fluorescence for TGNDP I90L please.
Result: 0.0469

Q: Give sfGFP reporter fluorescence for the following variant: TGSDP H142A
Result: 0.0642

Q: For the variant NTDDP P61N D64K L107C , give its measured sfGFP reporter fluorescence value.
Result: 2.26
